Where these numbers come from: PubChem BioAssay (NCI)

System: 786-0 renal
Experiment: NCI-60 one-dose screen, 48 h
Conditions: 10 µM unless noted
This is part of a sample that, as a whole, favours compounds with a hit. Of some 83,000 tested, about 20% had one in any assay. The source made the active and inactive calls. The calls were made as follows: active = growth percent below 10; inactive = the rest.
Your answer must be one of the following: Yes = active, No = inactive

N#Cc1ccc(/C=C/c2cn(-c3ccccc3)nc2-c2cccc([N+](=O)[O-])c2)cc1; No
CNCC[C@H](Oc1cccc2ccccc12)c1cccs1; No
O=c1cc(-c2ccccc2)nc(SCc2nc3cc(Cl)c(Cl)cc3[nH]2)[nH]1; No
Cc1ccc(NC(=O)c2sc3nc(C)c(C(O)c4ccccc4)cc3c2N)cc1 (stereo not given); No
Cn1c(=O)c2[nH]c(SC/C(=N/O)c3ccc(Br)cc3)nc2n(C)c1=O; Yes

query: Please state the recorded outcome for this molecule: CC(C)NS(=O)(=O)/N=C1\NC(=O)NC1=C(Cl)Cl
result: No

query: Can you handle COCC(=O)Oc1cc(-c2ccc(C)cc2C)c(OC(=O)COC)c(-c2ccc(C)cc2C)c1 next?
result: No

query: Can you handle CN1CCN(c2ccc(NC3=CC(=O)c4ncncc4C3=O)cc2)CC1 next?
result: Yes

query: Can you handle CN(C)Cc1cc(C(C)(C)C)cc(Br)c1O next?
result: No

query: Can you handle O=C(Oc1ccc2c(c1)sc1nc(-c3ccccc3)[nH]c(=O)c12)C(F)(F)F next?
result: No
